# TARGET_SYSTEM: D-1 receptor (Rattus norvegicus)
# Construct: Striatal tissue was excised, pooled, and homogenized
# Sequence (P18901 whole entry): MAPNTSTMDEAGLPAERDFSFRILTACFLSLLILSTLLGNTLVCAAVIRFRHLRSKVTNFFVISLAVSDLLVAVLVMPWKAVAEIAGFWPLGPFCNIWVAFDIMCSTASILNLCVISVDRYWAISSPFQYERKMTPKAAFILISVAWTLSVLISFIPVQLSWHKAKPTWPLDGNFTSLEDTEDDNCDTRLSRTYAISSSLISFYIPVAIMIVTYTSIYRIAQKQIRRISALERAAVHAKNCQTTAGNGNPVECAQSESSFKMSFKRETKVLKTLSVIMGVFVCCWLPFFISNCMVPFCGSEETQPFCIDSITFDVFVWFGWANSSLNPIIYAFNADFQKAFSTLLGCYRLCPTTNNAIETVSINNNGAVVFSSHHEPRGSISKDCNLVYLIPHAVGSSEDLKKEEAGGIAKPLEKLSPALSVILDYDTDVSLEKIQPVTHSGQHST
# TEST: Competition binding with [N-methyl-^3 H] Compound as radioligand in rat striatal tissue
# ASSAY_CONDITIONS: rat striatum, radioligand 1.0 nM; read-out: KI, inhibition of binding of the labelled Compound
ASSAY_ENDPOINT: Ki
Number plus unit, in that order.

Supply recorded Ki for CN1CCc2cc(Cl)c(O)cc2[C@H]2c3ccccc3CC[C@@H]21 [Compound] here.
3.6 nM
